target: recombinant human cGAS (aa147-522) (Homo sapiens, UniProt Q8N884); construct: recombinant human cGAS (aa147-522); His6-SUMO (cleaved yes); made in house; host or cells: E. coli BL21/pLys; assay: In vitro inhibition assay of cGAS activity (ATP consumption, KinaseGlo Max); type: biochemical; conditions: Table 3, read-out: cGAS Inhibition Results IC50
Sequence (Q8N884 147-522): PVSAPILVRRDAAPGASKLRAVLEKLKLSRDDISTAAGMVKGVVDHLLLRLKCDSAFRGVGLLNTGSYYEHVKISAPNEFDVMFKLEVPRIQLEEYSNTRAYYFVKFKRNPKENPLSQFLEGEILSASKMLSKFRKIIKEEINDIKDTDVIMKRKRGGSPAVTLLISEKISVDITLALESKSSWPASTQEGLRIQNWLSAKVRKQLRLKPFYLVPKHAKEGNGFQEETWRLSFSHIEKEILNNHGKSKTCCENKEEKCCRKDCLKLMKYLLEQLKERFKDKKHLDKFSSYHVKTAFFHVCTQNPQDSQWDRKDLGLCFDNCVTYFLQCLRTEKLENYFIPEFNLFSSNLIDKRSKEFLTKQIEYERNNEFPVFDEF
pIC50: −log10 of the molar value.
Measure Name: pIC50

>  <Molecule>
CN(CCS(=O)(=O)NCCCO)c1cc(-n2ccnc2)c2ccc(Cl)c(Cl)c2n1

>  <Assay System>
recombinant human cGAS (aa147-522) (Homo sapiens, UniProt Q8N884)

>  <pIC50>
> 5.70

$$$$
>  <Molecule>
COC(=O)[C@@H]1[C@H](OCC(=O)O)CCN1c1cc(-n2ccnc2)c2ccc(Cl)c(Cl)c2n1

>  <Assay System>
recombinant human cGAS (aa147-522) (Homo sapiens, UniProt Q8N884)

>  <pIC50>
4.52 to 5.70

$$$$
>  <Molecule>
COC(=O)CCOC[C@@H]1[C@@H](O)CCN1c1cc(-n2ccnc2)c2ccc(Cl)c(Cl)c2n1

>  <Assay System>
recombinant human cGAS (aa147-522) (Homo sapiens, UniProt Q8N884)

>  <pIC50>
> 5.70

$$$$
>  <Molecule>
COC(=O)CC(C)OC[C@@H]1CCCN1c1cc(-n2ccnc2)c2ccc(Cl)c(Cl)c2n1 (some centres unmarked)

>  <Assay System>
recombinant human cGAS (aa147-522) (Homo sapiens, UniProt Q8N884)

>  <pIC50>
4.52 to 5.70

$$$$
>  <Molecule>
O=C(O)CCOC[C@@H]1CCN(c2cc(-n3ccnc3)c3ccc(Cl)c(Cl)c3n2)C1

>  <Assay System>
recombinant human cGAS (aa147-522) (Homo sapiens, UniProt Q8N884)

>  <pIC50>
> 5.70

$$$$
>  <Molecule>
O=C(O)CCCC[C@@H]1CCCN1c1cc(-c2cn[nH]c2)c2ccc(Cl)c(Cl)c2n1

>  <Assay System>
recombinant human cGAS (aa147-522) (Homo sapiens, UniProt Q8N884)

>  <pIC50>
> 5.70

$$$$

Give the reported pIC50 for this molecule. `O=C1CC2CCCC(C1)N2c1cc(-n2ccnc2)c2ccc(Cl)c(Cl)c2n1`
> 5.70

In one line, give reported pIC50 of the entry O=C(O)CCOC[C@@H]1[C@@H]2C[C@@H]2CN1c1cc(-n2ccnc2)c2ccc(Cl)c(Cl)c2n1 (stereo in doubt) .
> 5.70

Provide pIC50 value for the following molecule: `CC(=O)N[C@H]1CCN(c2cc(-n3ccnc3)c3ccc(Cl)c(Cl)c3n2)C1`
> 5.70

Give a short answer stating reported pIC50 for `CC(C)N(CCOCCC(=O)O)c1cc(-n2ccnc2)c2ccc(Cl)c(Cl)c2n1` .
> 5.70

Look up and report measured pIC50 for this entry: `O=C(O)c1ccnn1CC[C@@H]1CCCN1c1cc(-n2ccnc2)c2ccc(Cl)c(Cl)c2n1`
> 5.70

Please report the measured pIC50 for `O=C(O)CCOC[C@@H]1CN(c2cc(-c3cn[nH]c3)c3ccc(Cl)c(Cl)c3n2)CCO1`
> 5.70

----------
Item-by-item account of IC50
molecular target: recombinant human cGAS (aa147-522) (Homo sapiens); construct: recombinant human cGAS (aa147-522); His6-SUMO (cleaved yes); made in house; host or cells: E. coli BL21/pLys; assay: In vitro inhibition assay of cGAS activity (ATP consumption, KinaseGlo Max); type: biochemical; details: Table 2, read-out: cGAS Inhibition Results IC50

>  <Molecule>
O=C(O)c1cc(Br)cc(-c2cc(-n3ccnc3)c3ccc(Cl)cc3n2)c1

>  <Meas Value>
> 30 µM

$$$$

For `CS(=O)(=O)NC[C@@H]1CCCN1c1cc(-n2ccnc2)c2ccc(Cl)c(Cl)c2n1` , write its IC50.
< 2 µM

// fetch IC50 given entry `O=C(O)[C@H]1CCCN(c2cc(-n3ccnc3)c3ccc(Cl)cc3n2)C1`
2 to 30 µM

Fill in reported IC50 for this entry: `O=C(O)[C@@H]1C[C@@H](OCc2ccccc2)CN1c1cc(-c2cn[nH]c2)c2ccc(Cl)c(Cl)c2n1`
2 to 30 µM

Supply measured IC50 of `OC[C@@H]1CCCN1c1cc(-c2cn[nH]c2)nc2c(Cl)c(Cl)ccc12` in your reply.
> 30 µM

Retrieve IC50 measured for `CC(C)(C)O[C@@H]1C[C@@H](C(=O)O)N(c2cc(-c3cn[nH]c3)c3ccc(Cl)c(Cl)c3n2)C1` and print it.
< 2 µM

Could you please provide reported IC50 for `Brc1ccc2c(-n3cccn3)ccnc2c1` ? Thanks!
> 30 µM

Give a short answer stating reported IC50 for `O=C(O)C[C@@H]1CCCN1c1cc(-n2ccnc2)c2ccc(Cl)c(Cl)c2n1` .
< 2 µM

Data credit: patent US11873291B2
